Species: Homo sapiens
Test: Evaluated for ability to inhibit platelet aggregation of human platelet-rich plasma (PRP) induced by 11.9-epoxymethano-PGH2.
Format: functional
Settings: read-out: I50
pIC50: −log10 of the molar value.

| COMPOUND | pIC50 |
| --- | --- |
| CCCCCCCC(=O)NCC(=O)NCC1C2CCC(O2)C1C/C=C/CCCC(=O)O (stereo in doubt; 51) | 6.37 |

* * *

Biological target: Thromboxane A2 receptor (Homo sapiens)
Sequence (P21731 whole entry): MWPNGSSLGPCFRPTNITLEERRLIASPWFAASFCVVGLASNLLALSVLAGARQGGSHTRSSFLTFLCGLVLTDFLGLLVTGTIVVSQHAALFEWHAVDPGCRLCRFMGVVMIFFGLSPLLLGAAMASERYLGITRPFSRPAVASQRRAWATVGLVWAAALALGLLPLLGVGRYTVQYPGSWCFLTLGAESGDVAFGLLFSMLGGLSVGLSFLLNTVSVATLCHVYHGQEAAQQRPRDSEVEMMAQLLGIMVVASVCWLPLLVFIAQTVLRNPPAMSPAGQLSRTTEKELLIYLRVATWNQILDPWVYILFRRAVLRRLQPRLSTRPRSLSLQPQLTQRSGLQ
pKd: −log10 of the molar value.
pKd values, listed per item

| COMPOUND | pKd |
| --- | --- |
| O=C(O)CCC/C=C/CC1C2CCC(O2)C1CNC(=O)CNC(=O)CCCC1CCCCC1 (centres undefined) | 8.96 |
| O=C(O)CCC/C=C/CC1C2CCC(O2)C1CNC(=O)CNC(=O)CSc1ccccc1 (centres undefined) | 7.38 |
| CCCCCCCC(=O)NCC(=O)NCC1C2CCC(O2)C1C/C=C/CCCC(=O)O (stereo in doubt; 51) | 7.76 |
| O=C(O)CCC/C=C/CC1C2CCC(O2)C1CNC(=O)CNC(=O)CCCCC1CCCCC1 (centres undefined) | 8.59 |
